Dear all, this message contains IC50 results, target or system UniProt:P23458.
Sequence (P23458 whole entry): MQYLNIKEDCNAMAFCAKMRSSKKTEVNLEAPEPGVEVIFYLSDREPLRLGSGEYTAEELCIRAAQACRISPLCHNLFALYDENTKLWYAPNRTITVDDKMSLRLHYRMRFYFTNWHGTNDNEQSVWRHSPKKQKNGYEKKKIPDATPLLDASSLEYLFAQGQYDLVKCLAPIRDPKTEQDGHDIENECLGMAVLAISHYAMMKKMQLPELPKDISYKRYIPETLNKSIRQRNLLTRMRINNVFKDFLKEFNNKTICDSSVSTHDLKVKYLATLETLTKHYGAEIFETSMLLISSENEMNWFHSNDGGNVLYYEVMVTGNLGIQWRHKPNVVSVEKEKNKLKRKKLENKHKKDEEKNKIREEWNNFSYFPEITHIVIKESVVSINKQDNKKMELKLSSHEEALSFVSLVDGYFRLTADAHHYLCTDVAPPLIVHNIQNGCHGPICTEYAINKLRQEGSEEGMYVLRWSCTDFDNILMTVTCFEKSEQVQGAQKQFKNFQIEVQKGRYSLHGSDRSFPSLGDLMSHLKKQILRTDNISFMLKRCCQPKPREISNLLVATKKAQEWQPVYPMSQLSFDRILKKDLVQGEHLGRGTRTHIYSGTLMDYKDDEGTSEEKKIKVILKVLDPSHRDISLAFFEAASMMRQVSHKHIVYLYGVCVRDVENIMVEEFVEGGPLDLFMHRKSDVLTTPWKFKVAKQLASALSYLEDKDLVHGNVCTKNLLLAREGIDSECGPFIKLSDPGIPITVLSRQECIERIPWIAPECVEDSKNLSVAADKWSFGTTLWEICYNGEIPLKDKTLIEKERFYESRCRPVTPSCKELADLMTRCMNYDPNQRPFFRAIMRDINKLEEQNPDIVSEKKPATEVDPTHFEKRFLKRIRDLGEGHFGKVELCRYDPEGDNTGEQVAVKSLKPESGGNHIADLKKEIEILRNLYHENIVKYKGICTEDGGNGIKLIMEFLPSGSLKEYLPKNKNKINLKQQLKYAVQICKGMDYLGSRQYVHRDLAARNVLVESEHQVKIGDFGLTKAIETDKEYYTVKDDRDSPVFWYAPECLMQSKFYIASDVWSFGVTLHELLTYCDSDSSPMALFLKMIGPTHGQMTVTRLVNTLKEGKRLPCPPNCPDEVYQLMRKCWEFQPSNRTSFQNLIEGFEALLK
One number for each entry, in nM.

Use these answered entries as a reference point.
- CC(CO)c1ccc(Nc2nccc(-c3ccc(NC(=O)[C@@H]4CC4(F)F)cc3)n2)cn1 (stereo partly shown) [TDM-180989]: 11
- CCNC(=O)c1ccc(Nc2nccc(-c3ccc(NC(=O)[C@@H]4CC4(F)F)nc3)n2)cc1 [TDM-180971]: 6
- CCNC(=O)c1ccc(Nc2nccc(-c3ccc(NC(=O)[C@@H]4CC4(F)F)cc3)n2)cc1 [TDM-180972]: 4

Next, consider the following molecule.
Inquiry: Name the reported IC50 value associated with the molecule CNC(=O)c1ncc(Nc2nccc(-c3ccc(NC(=O)[C@@H]4CC4(F)F)nc3)n2)cc1C [TDM-180979]
Reply text: 25

* * *

Dear all, this message contains IC50 results, target or system UniProt:P29597.
Sequence (P29597 whole entry): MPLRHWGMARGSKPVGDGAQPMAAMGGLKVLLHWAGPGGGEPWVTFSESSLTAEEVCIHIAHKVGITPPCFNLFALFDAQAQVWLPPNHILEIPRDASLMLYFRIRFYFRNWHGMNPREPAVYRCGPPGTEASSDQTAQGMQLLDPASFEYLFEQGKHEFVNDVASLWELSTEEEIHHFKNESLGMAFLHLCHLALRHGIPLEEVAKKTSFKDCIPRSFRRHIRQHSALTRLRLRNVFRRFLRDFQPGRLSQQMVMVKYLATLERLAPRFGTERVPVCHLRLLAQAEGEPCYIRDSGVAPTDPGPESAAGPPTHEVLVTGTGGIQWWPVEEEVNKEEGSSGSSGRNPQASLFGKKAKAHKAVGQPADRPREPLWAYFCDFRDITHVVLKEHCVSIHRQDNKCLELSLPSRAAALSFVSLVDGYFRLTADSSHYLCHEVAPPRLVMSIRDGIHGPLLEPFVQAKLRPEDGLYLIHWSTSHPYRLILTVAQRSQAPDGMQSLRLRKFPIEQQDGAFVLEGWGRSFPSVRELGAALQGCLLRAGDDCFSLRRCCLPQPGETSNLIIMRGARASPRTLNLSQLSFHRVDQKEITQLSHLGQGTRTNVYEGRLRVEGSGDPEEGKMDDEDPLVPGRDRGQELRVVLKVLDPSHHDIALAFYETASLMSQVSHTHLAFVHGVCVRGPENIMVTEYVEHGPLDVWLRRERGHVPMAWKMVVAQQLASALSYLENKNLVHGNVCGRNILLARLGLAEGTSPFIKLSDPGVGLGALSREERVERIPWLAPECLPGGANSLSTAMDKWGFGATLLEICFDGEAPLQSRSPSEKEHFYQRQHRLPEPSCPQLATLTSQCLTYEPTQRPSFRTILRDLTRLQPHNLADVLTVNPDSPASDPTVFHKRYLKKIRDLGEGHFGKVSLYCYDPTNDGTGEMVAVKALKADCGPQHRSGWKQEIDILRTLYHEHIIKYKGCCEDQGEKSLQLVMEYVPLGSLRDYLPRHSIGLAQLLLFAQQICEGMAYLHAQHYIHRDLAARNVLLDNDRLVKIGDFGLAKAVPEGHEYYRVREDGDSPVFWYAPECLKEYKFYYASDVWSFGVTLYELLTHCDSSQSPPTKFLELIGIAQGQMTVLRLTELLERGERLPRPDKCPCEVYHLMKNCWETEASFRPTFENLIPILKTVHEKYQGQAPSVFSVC
One number for each entry, in nM.

Record IC50 per entry; entries follow.
1. CCNC(=O)c1ccc(Nc2nccc(-c3ccc(NC(=O)[C@@H]4CC4(F)F)nc3)n2)cc1 [TDM-180971]
2. CCNC(=O)c1ccc(Nc2nccc(-c3ccc(NC(=O)[C@@H]4CC4(F)F)cc3)n2)cc1 [TDM-180972]
3. CCNC(=O)c1ccc(Nc2nccc(-c3ccc(NC(=O)[C@@H]4CC4(F)F)nc3)n2)cc1C [TDM-180984]
4. Cc1cc(Nc2nccc(-c3ccc(NC(=O)[C@@H]4CC4(F)F)nc3)n2)cnc1C(N)=O [TDM-180980]
5. Cc1cc(Nc2nccc(-c3ccc(NC(=O)[C@@H]4CC4(F)F)cc3)n2)cnc1C(N)=O [TDM-180974]

Reply text:
5
5
5
18
8
